Measured values drawn from PubChem BioAssay (NCI) for this set.

Tested on: NCI-H226 lung
Assay: NCI tumour cell line growth inhibition, 48 h
Reported GI50 values for a set of compounds

N#C/C(=C/C=C/c1ccccc1)S(=O)c1ccccc1 (stereo not given) ... 1.92 µM

**Query** // fetch NCI-H226 lung GI50 for O=C1/C(=C/c2ccccc2Br)COc2ccc(O)c(O)c21
**Result** 2.75 µM

**Query** Kindly state the measured GI50 obtained for O=C(NC1CCN(Cc2ccccc2)CC1)c1cc(C(=O)NC2CCN(Cc3ccccc3)CC2)cc(C(=O)NC2CCN(Cc3ccccc3)CC2)c1 with NCI-H226 lung.
**Result** 14.7 µM

**Query** What is its GI50 for NCI-H226 lung? Entry: COc1cc(C)[nH]c(=O)c1CN1CCc2c(Cl)cc([C@H](OC)C3COC3)c(Cl)c2C1=O
**Result** > 100 µM

**Query** // map C=C1SC(=Nc2ccccc2Cl)N(C(=O)c2sc3ccccc3c2Cl)C1(C)C to recorded GI50 (system: NCI-H226 lung)
**Result** 5.52 µM

---

Tested on: SNB-19 CNS
Test: NCI tumour cell line growth inhibition, 48 h
readout-name: log10 of TGI (log10 of the value in µM)
Please interpret these as log10 of TGI where TGI is in µM.

CCN(CC)CCSc1nc2c(c(=N)n1-c1ccccc1)c(=S)n(-c1ccccc1)c(=S)n2-c1ccccc1 ... 1.61
COC(=O)c1cc2c3c(cc(O)c2[nH]1)N(C(=O)C1Cc2cc(OC)c(OC)c(OC)c2N1)CC3CCl (stereo not given) ... 0.02
CCC1CCCCN1C(=S)N/N=C(\C)c1ccccn1 (stereo not given) ... 0.68
Cc1cccc2c1O/C(=C\c1ncc([N+](=O)[O-])n1C)C2=O ... 0.66
CN(C)Cc1cccc(CN(C)C)[c]1[Sn]([Br])([c]1ccccc1)[c]1ccccc1 ... 1.68
CC(=O)NC1C(OCc2ccccc2)OC(COC(=O)CCCCCNc2ccc([N+](=O)[O-])c3[nH]c4ccc(O)cc4c(=O)c23)C(O)C1OC(C)C(=O)N[C@@H](C)C(=O)N[C@H](CCC(=O)OCc1ccccc1)C(N)=O (stereo not given in full) ... 1.29
NC1=NC(c2ccccc2)CC(c2cc(Cl)cc(Br)c2O)=N1 (stereo not given) ... 1.52
N=C1C(c2nc3ccccc3s2)=C(O)CN1c1ccc(Cl)cc1Cl ... 1.91

Now, please, on to the next molecule.
**Query** // query log10 of TGI value for entry OCCN=C1c2ccccc2C2C(c3ccccc31)C1c3ccccc3C(=NCCO)c3ccccc3C21 (stereo not given)
**Result** 1.62

---

System: SK-MEL-5 melanoma
Test: NCI tumour cell line growth inhibition, 48 h
readout-name: GI50

Known results for compounds:
O=C(NC1CCN(Cc2ccccc2)CC1)c1cc(C(=O)NC2CCN(Cc3ccccc3)CC2)cc(C(=O)NC2CCN(Cc3ccccc3)CC2)c1 ... 7.9 µM
CC1(C)CCC2(C(=O)O)CC[C@]3(C)C(=CCC4C5(C)CC[C@H](OC6OC(C(=O)O)C(O)C(OC7OC(CO)C(O)C(O)C7O)C6OC6OC(CO)C(O)C(O)C6O)C(C)(C)C5CCC43C)C2C1 (stereo partly drawn) ... > 100 µM

Let us examine a further case.
**Query** For the compound COc1c(B(O)O)cccc1-c1nc2c(F)cc3[nH]ncc3c2c2c1CCCC2 , what GI50 is on record?
**Result** 3.08 µM
